Can you tell me pKd for the items I'm about to list?
B1: scFv; the commonest letter at each place (parent)
chain 1: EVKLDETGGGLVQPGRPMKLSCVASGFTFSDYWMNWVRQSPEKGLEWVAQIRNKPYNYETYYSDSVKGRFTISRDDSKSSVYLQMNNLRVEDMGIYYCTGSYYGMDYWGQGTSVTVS
chain 2: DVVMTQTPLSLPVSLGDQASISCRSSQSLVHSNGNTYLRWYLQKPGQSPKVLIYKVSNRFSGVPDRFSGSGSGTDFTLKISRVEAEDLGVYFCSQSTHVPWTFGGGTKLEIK

Variants of: B1
assayMethodText: Kd (Tite-Seq)
statedConditions: with fluorescein; format: scFv 4-4-20, heavy + light
pKd: −log10 of the molar value.

Study these solved cases before continuing.
>>> valuereported("chain 1 G104D W108T")
"≤ 5.00"
>>> valuereported("chain 1 G109T")
"≤ 5.00"
>>> valuereported("chain 1 M34S W36A")
"≤ 5.00"
>>> valuereported("chain 1 G100Y D106I")
"≤ 5.00"
>>> valuereported("chain 1 S101P G104T M105Y")
"≤ 5.00"
>>> valuereported("chain 1 G100R G104Q")
"≤ 5.00"
>>> valuereported("chain 1 S30R N35F")
"≤ 5.00"
>>> valuereported("chain 1 S101Y D106K")
"≤ 5.00"

Kindly give each listed record's pKd.
1. chain 1 S30W Y32C
2. chain 1 Y103T W108P
3. chain 1 G100K M105D
4. chain 1 D31H M34Q
5. chain 1 W33V N35Q

1. 5.25
2. ≤ 5.00
3. ≤ 5.00
4. ≤ 5.00
5. ≤ 5.00

Kindly give each listed record's pKd.
1. chain 1 G100I Y103F
2. chain 1 S101N Y102M

1. ≤ 5.00
2. ≤ 5.00
